The measurements presented in this section are drawn from patent US20240351988A1.

- System: AHR-regulated gene CYP1A1 in human monocytic U937 cell line
- Assay comment: AHR-regulated CYP1A1 expression in U937 cells (qPCR, kynurenic acid stimulated)
- Assay type: cell-based
- Run conditions: U-937, 200 μM KA, 16 hours, CYP1A1 vs GAPDH, read-out: Cyp ANATAG mode assay: IC50
pIC50: −log10 of the molar value.

- Compound: "CCc1ccc(-c2cc(C(=O)N[C@@H](C)COC)c(=O)n(-c3cnn(C)c3)n2)cc1"
  pIC50: "> 7.00"
- Compound: "COC[C@H](C)NC(=O)c1cc(-c2ccc3c(c2)OCC3)nn(-c2cnn(C)c2)c1=O"
  pIC50: "6.40 to 7.00"
- Compound: "COC[C@H](C)NC(=O)c1cc(-n2cc(-c3ccc(Cl)cc3)cn2)nn(-c2cnn(C)c2)c1=O"
  pIC50: "6.40 to 7.00"
- Compound: "CNC(=O)[C@H](C)NC(=O)c1cc(-c2ccc(-c3ccc(Cl)cc3)cc2)nn(-c2cnn(C)c2)c1=O"
  pIC50: "> 7.00"
- Compound: "C[C@H](NC(=O)c1cc(-c2ccc(OC(F)(F)F)cc2)nn(-c2cnn(C)c2)c1=O)C(=O)N(C)C"
  pIC50: "> 7.00"
- Compound: "CNC(=O)C(C)NC(=O)c1cc(-c2ccc(Cl)cc2)nn(-c2cccc(F)c2)c1=O (stereo not drawn)"
  pIC50: "6.40 to 7.00"
- Compound: "CN(C)C(=O)C(C)(C)NC(=O)c1cc(-c2ccc(Cl)cc2)nn(-c2cnn(C)c2)c1=O"
  pIC50: "> 7.00"
- Compound: "C[C@@H](CO)NC(=O)c1cc(-c2ccc(-c3ccc(Cl)cc3)cc2)nn(-c2cnn(C)c2)c1=O"
  pIC50: "> 7.00"
- Compound: "C[C@@H](CO)n1cnc2c(-c3cnn(C)c3)nc(-c3cnc(-c4ccc(F)cc4)nc3)cc2c1=O"
  pIC50: "> 7.00"
- Compound: "CN1CCCC[C@H](NC(=O)c2cc(-c3ccc(C(F)(F)F)nc3)nn(-c3cnn(C)c3)c2=O)C1=O"
  pIC50: "> 7.00"
- Compound: "CCc1ccc(-c2cc(C(=O)N[C@@H](C)CO)c(=O)n(-c3cnn(C)c3)n2)cc1"
  pIC50: "> 7.00"
- Compound: "C[C@@H](CO)NC(=O)c1cc(-c2ccc(C3CCCCC3)cc2)nn(-c2cnn(C)c2)c1=O"
  pIC50: "> 7.00"
- Compound: "CNC(=O)[C@H](C)NC(=O)c1cc(-c2ccc(Cl)cc2)nn(-c2cnn(C)c2)c1=O"
  pIC50: "> 7.00"
- Compound: "COC[C@H](C)NC(=O)c1cc(-c2ccc3cc(F)ccc3c2)nn(-c2cnn(C)c2)c1=O"
  pIC50: "> 7.00"
- Compound: "C[C@@H](CO)NC(=O)c1cc(-c2cnc(-c3cccc(F)c3)nc2)nn(-c2cnn(C)c2)c1=O"
  pIC50: "> 7.00"

* * *

- Tested on: AHR-regulated gene CYP1A1 in human monocytic U937 cell line
- Assay comment: AHR-regulated CYP1A1 expression in U937 cells (qPCR, kynurenic acid stimulated)
- Type: cell-based
- Run conditions: U-937, 200 μM KA, 16 hours, CYP1A1 vs GAPDH, read-out: Cyp ANATAG mode assay: IC50

- Compound: "C[C@@H](CO)NC(=O)c1cc(-c2ccc(-c3ccccc3)nc2)nn(-c2cnn(C)c2)c1=O"
  IC50: "< 0.1 µM"
- Compound: "CNC(=O)C(C)(C)NC(=O)c1cc(-c2ccc(C(F)(F)F)cc2)nn(-c2cnn(C)c2)c1=O"
  IC50: "< 0.1 µM"
- Compound: "COC[C@H](C)NC(=O)c1cc(-c2ccc(Cl)cc2)nn(-c2cccc(F)c2)c1=O"
  IC50: "< 0.1 µM"
- Compound: "C[C@@H](CO)NC(=O)c1cc(N2CCN(c3ccc(F)cc3)CC2)nn(-c2cnn(C)c2)c1=O"
  IC50: "< 0.1 µM"
- Compound: "C[C@@H](CO)NC(=O)c1cc(N2CCC(c3ccc(F)cc3)CC2)nn(-c2cnn(C)c2)c1=O"
  IC50: "0.1 to 0.4 µM"
- Compound: "CNC(=O)[C@H](C)NC(=O)c1cc(-c2ccc(OC(F)(F)F)cc2)nn(-c2cnn(C)c2)c1=O"
  IC50: "< 0.1 µM"
- Compound: "C[C@H](NC(=O)c1cc(-c2ccc(-c3ccc(Cl)cc3)cc2)nn(-c2cnn(C)c2)c1=O)C(=O)N(C)C"
  IC50: "< 0.1 µM"
- Compound: "COC[C@H](C)NC(=O)c1cc(-c2ccc(Cl)cc2)nn(-c2cn[nH]c2)c1=O"
  IC50: "< 0.1 µM"
- Compound: "CN1CCCC[C@H](NC(=O)c2cc(-c3ccc(C(F)(F)F)cc3)nn(-c3cnn(C)c3)c2=O)C1=O"
  IC50: "< 0.1 µM"
- Compound: "C[C@@H](CO)NC(=O)c1cc(-c2ccc(-c3ccccc3F)nc2)nn(-c2cnn(C)c2)c1=O"
  IC50: "< 0.1 µM"
- Compound: "CNC(=O)[C@H](C)NC(=O)c1cc(-c2ccc(Cl)cc2)nn(-c2cccc(F)c2)c1=O"
  IC50: "< 0.1 µM"
- Compound: "CNC(=O)[C@H](C)NC(=O)c1cc(-c2ccc(-c3ccc(Cl)cc3)nc2)nn(-c2cnn(C)c2)c1=O"
  IC50: "< 0.1 µM"
- Compound: "C[C@@H](CO)NC(=O)c1cc(-c2ccc(C(C)(C)C)cc2)nn(-c2cnn(C)c2)c1=O"
  IC50: "< 0.1 µM"
- Compound: "Cc1nn(C)c2cc(-c3cc(C(=O)N[C@@H](C)CO)c(=O)n(-c4cnn(C)c4)n3)ccc12"
  IC50: "0.1 to 0.4 µM"
- Compound: "CC(NC(=O)c1cc(-c2ccc(Cl)cc2)nn(-c2cccc(F)c2)c1=O)C(=O)N(C)C (stereo not drawn)"
  IC50: "0.1 to 0.4 µM"
